Assay: Hygroscopicity test: weight gain of solid sample in humidity chamber at RH=80%
Type: physicochemical
Settings: RH = 80%
quantity: Color stability at RH = 80% (h)
Numeric only. Scale: h

Challenge: Specify reported Color stability at RH = 80% for the compound shown: CCOC(=O)[C@@H](N)Cc1ccc(O)c(O)c1.O=C(O)C(O)C(O)C(=O)O [Example 4, LDEE L(+)Tartrate]
Response given: 15

Challenge: Answer with reported Color stability at RH = 80% of CCOC(=O)[C@@H](N)Cc1ccc(O)c(O)c1.O=C(O)c1ccccc1 [Example 8, LDEE Benzoate]
Response given: 4.5

Challenge: Consider the compound CCO.CCOC(=O)[C@@H](N)Cc1ccc(O)c(O)c1.O=C(O)/C=C\C(=O)O [Example 28, LDEE Maleate Ethanolate] . State its measured Color stability at RH = 80%.
Response given: 3

Challenge: Please supply the value of reported Color stability at RH = 80% for the item CC(=O)O.CCOC(=O)[C@@H](N)Cc1ccc(O)c(O)c1 [Example 2, LDEE Acetate]
Response given: 1.5

Challenge: For the compound CCOC(=O)C(N)Cc1ccc(O)c(O)c1.O=C(O)C(O)C(O)C(=O)O (mixture of isomers) [Example 7, LDEE (LD)Tartrate] , give its measured Color stability at RH = 80% value.
Response given: 20

Challenge: For the compound CCOC(=O)[C@@H](N)Cc1ccc(O)c(O)c1.O=C(O)C(O)C(O)C(=O)O [Example 6, LDEE D(−)Tartrate] , give its reported Color stability at RH = 80%.
Response given: 20

Challenge: Please supply the value of reported Color stability at RH = 80% for the item CCOC(=O)[C@@H](N)Cc1ccc(O)c(O)c1.O=P(O)(O)O [Example 11, LDEE Phosphate]
Response given: 15

Challenge: Specify measured Color stability at RH = 80% for CCOC(=O)[C@@H](N)Cc1ccc(O)c(O)c1.O=C(O)C(O)C(O)C(=O)O [Example 5, LDEE Hydrogen L(+)Tartrate] .
Response given: 19
